Recorded values, source patent US20040048790A1.

# target_or_test_system: HLA-A*0201 (human)
# assay_remarks: binding to purified HLA-A*0201 in vitro
# stated_conditions: remark: other sources report otherwise
pIC50: −log10 of the molar value.
Reported pIC50 by item:

{"binder": "CQLAKTCPV [p53 peptide, position 135, 9 amino acids]", "pIC50": "> 6.30"}
{"binder": "NLLGRNSFEV [p53 peptide, position 263, 10 amino acids]", "pIC50": "> 6.30"}
{"binder": "QLAKTCPV [p53.136 (8 amino acids)]", "pIC50": "> 6.30"}
